Assay: Stability at pH 2.0-7.4 determined 2 hours after treatment
Assay type: physicochemical
Details: buffer, read-out: Stability
Observation type: remaining at 2 h
Answer format: number, then unit.

**Q:** // remaining at 2 h lookup, key: C=Cc1cn([C@@H]2O[C@H](C)[C@@H](OC(C)=O)[C@H]2OC(C)=O)c(=O)nc1N
**A:** 100%

###

Assay: Stability in serum determined 1 hour after treatment
Type: ADME, cell-free
Conditions: read-out: Stability
Observation type: remaining at 1 h (%)
Kindly answer with a numeric value in %, unit omitted.

**Q:** // remaining at 1 h lookup, key: C=Cc1cn([C@@H]2O[C@H](C)[C@@H](OC(C)=O)[C@H]2OC(C)=O)c(=O)nc1N
**A:** 61

###

Below are pIC50 values measured for Dihydropyrimidine dehydrogenase [NADP(+)] (Homo sapiens, UniProt Q12882).
Please note pIC50 is a logarithmic value: minus log10 of concentration in mol/L. Answer with that number alone.

**Q:** // pIC50 lookup, key: C=Cc1cnc(O)nc1O
**A:** 7.05

**Q:** Again, but for N#Cc1c[nH]c(=O)[nH]c1=O
**A:** 6.70

###

Target: UniProt:P19971
Sequence (whole entry): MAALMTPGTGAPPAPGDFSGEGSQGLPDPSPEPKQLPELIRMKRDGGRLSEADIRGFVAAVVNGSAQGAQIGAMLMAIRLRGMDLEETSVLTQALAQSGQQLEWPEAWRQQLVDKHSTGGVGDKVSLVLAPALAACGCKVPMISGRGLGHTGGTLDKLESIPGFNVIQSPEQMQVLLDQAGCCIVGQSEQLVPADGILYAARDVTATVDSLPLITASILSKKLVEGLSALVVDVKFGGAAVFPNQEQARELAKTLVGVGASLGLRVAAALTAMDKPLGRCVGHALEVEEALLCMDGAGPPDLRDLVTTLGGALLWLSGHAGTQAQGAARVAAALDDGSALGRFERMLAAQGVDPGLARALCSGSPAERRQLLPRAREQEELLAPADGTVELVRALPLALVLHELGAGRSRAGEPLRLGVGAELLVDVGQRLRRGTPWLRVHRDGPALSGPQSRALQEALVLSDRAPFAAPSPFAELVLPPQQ
Assay: Susceptibility to thymidine phosphorylase (ThdPase) at a substrate concentration of 1.0 mM
Provide the recorded Relative susceptibility for the entries that follow.
Respond numerically, and do not add a unit to the figure.

**Q:** // Relative susceptibility lookup, key: C#Cc1cn([C@@H]2O[C@H](C)C(O)[C@H]2O)c(=O)[nH]c1=O (single isomer, unassigned)
**A:** 5

**Q:** Again, but for C[C@H]1O[C@@H](n2cc(I)c(=O)[nH]c2=O)[C@H](O)C1O (single isomer, unassigned)
**A:** 2.3

**Q:** Again, but for C[C@H]1O[C@@H](n2cc(F)c(=O)[nH]c2=O)[C@H](O)C1O (single isomer, unassigned)
**A:** 1

**Q:** Again, but for C=Cc1cn([C@@H]2O[C@H](C)C(O)[C@H]2O)c(=O)[nH]c1=O (single isomer, unassigned)
**A:** 0.2

###

Provide the recorded Relative susceptibility for the entries that follow.
Target: UniProt:P32320
Sequence (P32320 whole entry): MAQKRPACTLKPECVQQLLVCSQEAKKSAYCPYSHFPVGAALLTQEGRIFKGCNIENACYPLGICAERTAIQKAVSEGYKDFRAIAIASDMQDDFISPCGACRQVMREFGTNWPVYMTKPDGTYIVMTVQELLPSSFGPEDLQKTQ
Assay: Susceptibility to Cyd deaminase at a substrate concentration of 2.0 mM
Respond numerically, and do not add a unit to the figure.

**Q:** // Relative susceptibility lookup, key: C[C@H]1O[C@@H](n2cc(I)c(N)nc2=O)[C@H](O)[C@@H]1O
**A:** 0.33

**Q:** Again, but for C#Cc1cn([C@@H]2O[C@H](C)[C@@H](O)[C@H]2O)c(=O)nc1N
**A:** 0.034

**Q:** Again, but for C[C@H]1O[C@@H](n2cc(F)c(N)nc2=O)[C@H](O)[C@@H]1O
**A:** 1

**Q:** Again, but for C=Cc1cn([C@@H]2O[C@H](C)[C@@H](O)[C@H]2O)c(=O)nc1N
**A:** 0.14
